Just for reference, ChEMBL document CHEMBL1137790 is where these values come from.

Biological target: Neuronal acetylcholine receptor subunit alpha-7 (Rattus norvegicus)
Sequence (Q05941 whole entry): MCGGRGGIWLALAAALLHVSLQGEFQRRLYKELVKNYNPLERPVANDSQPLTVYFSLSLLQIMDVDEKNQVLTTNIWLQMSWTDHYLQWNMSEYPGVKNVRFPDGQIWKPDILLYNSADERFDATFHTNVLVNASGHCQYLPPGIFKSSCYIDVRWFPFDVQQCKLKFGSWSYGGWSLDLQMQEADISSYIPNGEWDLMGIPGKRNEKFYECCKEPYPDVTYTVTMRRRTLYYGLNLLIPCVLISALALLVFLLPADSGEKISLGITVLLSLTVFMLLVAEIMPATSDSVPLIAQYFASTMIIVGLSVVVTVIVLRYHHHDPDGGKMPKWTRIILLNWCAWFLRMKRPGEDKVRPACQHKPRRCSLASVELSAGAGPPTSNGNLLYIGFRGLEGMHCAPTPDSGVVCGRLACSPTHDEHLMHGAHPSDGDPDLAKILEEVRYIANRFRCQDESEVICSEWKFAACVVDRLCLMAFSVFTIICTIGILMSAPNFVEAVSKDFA
Experiment: Displacement of [3H]A585539 from alpha7 nicotinic acetylcholine receptor in rat brain minus cerebellum membrane
Type: tissue-based
// returns FALSE unless Ki is strictly below 40 nM, in which case TRUE

These solved cases illustrate the format of a correct answer.
                           structure_smiles  class_assignment
0          Brc1cncc(N2C[C@H]3CNC[C@H]3C2)c1             FALSE
1         CCOc1cncc(N2C[C@H]3CNC[C@H]3C2)c1             FALSE
2  CN1C[C@@H]2CN(c3ccc(-c4ccccc4)cn3)C[C@@H]2C1              TRUE
3  c1ccc(-c2ccc(N3C[C@H]4CNC[C@H]4C3)nc2)cc1              TRUE
4  C[N+]1(C)C[C@H]2CN(c3ccc(Cl)nc3)C[C@H]2C1             FALSE

API: query returns whether the compound falls strictly under 40 nM in Ki. Query: CC(C)Oc1cncc(N2C[C@H]3CNC[C@H]3C2)c1
FALSE

API: query returns whether the compound falls strictly under 40 nM in Ki. Query: c1ncc(N2C[C@H]3CNC[C@H]3C2)cc1N1CCOCC1
FALSE

API: query returns whether the compound falls strictly under 40 nM in Ki. Query: CN1C[C@@H]2CN(c3ccc(-c4cccc(-c5ccccc5)c4)nc3)C[C@@H]2C1
FALSE

API: query returns whether the compound falls strictly under 40 nM in Ki. Query: COc1ccc(-c2ccc(N3C[C@H]4CN(C)C[C@H]4C3)nn2)cc1
TRUE

API: query returns whether the compound falls strictly under 40 nM in Ki. Query: CCN1C[C@@H]2CN(c3ccc(-c4ccccc4)nn3)C[C@@H]2C1
FALSE

API: query returns whether the compound falls strictly under 40 nM in Ki. Query: CN1C[C@@H]2CN(c3ccc(-c4ccccc4)nc3)C[C@@H]2C1
TRUE

API: query returns whether the compound falls strictly under 40 nM in Ki. Query: C[N+]1(C)C[C@H]2CN(c3ccc(-c4ccccc4)nn3)C[C@H]2C1
TRUE
